- Experimental System: hPR (Homo sapiens, UniProt P06401)
- Sequence (P06401 679-933 limits assumed): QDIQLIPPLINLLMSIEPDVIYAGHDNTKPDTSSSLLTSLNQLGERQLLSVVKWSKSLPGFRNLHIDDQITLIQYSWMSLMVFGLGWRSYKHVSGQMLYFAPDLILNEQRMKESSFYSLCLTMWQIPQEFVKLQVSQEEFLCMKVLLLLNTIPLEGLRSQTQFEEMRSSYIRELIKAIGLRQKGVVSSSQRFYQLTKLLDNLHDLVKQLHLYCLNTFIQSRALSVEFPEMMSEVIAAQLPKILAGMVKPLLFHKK
- Method Notes: T47D alkaline phosphatase assay, antagonist mode
- Format: cell-based
- Details: T47D human breast cancer cells; read-out: hPR Antagonists T47D Cells IC50
IC50 values, listed per item
Give the number; nM is assumed, so skip it.

Query: Notebook entry, hPR (Homo sapiens, UniProt P06401) assay: IC50 of CC1=CC(C)(C)Nc2ccc3c(c21)C(c1cc2ccccc2s1)Oc1c(F)cc(F)cc1-3 (racemic) [Compound 63] = ?
Reply: 490

Query: Notebook entry, hPR (Homo sapiens, UniProt P06401) assay: IC50 of CC1=CC(C)(C)Nc2ccc3c(c21)/C(=C/c1cccc(F)c1)Oc1c(F)cc(F)cc1-3 [Compound 15] = ?
Reply: 711

Query: Notebook entry, hPR (Homo sapiens, UniProt P06401) assay: IC50 of CC1=CC(C)(C)Nc2ccc3c(c21)C(c1ccc(Cl)c(C)c1)Oc1c(F)cc(F)cc1-3 (single isomer, unassigned; (+)) [Compound 39] = ?
Reply: 4100

Query: Notebook entry, hPR (Homo sapiens, UniProt P06401) assay: IC50 of CC1=CC(C)(C)Nc2ccc3c(c21)/C(=C/c1ccncc1)Oc1c(F)cc(F)cc1-3 [Compound 14] = ?
Reply: 116

Query: Notebook entry, hPR (Homo sapiens, UniProt P06401) assay: IC50 of CC1=CC(C)(C)Nc2ccc3c(c21)/C(=C/c1cc(F)ccc1C)Oc1c(F)cc(F)cc1-3 [Compound 19] = ?
Reply: 360

---

Emax values, listed per item
- Experimental System: hPR (Homo sapiens, UniProt P06401)
- Sequence (P06401 1-933): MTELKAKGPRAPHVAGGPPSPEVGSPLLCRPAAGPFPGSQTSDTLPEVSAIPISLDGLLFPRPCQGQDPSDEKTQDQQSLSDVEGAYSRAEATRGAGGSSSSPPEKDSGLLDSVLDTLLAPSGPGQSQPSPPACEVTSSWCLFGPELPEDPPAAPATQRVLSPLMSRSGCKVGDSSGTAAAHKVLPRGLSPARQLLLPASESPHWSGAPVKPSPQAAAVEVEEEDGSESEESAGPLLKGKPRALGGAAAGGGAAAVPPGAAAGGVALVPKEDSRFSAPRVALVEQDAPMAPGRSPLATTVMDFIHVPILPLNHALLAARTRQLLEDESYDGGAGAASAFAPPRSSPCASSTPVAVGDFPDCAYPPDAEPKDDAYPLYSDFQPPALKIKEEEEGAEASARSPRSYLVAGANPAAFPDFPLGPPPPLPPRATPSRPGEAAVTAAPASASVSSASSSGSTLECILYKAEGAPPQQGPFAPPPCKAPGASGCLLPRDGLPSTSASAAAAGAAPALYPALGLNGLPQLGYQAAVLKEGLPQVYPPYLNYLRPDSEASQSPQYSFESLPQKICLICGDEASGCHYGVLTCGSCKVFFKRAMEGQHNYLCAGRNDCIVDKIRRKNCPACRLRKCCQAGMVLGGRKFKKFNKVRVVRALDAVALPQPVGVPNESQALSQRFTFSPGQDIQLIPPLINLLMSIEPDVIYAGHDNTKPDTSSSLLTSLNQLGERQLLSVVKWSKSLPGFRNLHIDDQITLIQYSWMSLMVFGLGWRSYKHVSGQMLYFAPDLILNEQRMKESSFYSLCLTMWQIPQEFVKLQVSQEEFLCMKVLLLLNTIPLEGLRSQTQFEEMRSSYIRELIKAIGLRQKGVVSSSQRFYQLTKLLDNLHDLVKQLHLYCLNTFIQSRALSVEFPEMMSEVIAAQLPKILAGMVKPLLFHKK
- Method Notes: hPR cotransfection assay in CV-1 cells, agonist mode
- Format: cell-based
- Details: CV-1, CV-1 cells; relative to maximal response of progesterone as 100%; read-out: hPR Agonist CV-1 Cells Eff. (%)
Give the number; % is assumed, so skip it.

For orientation, consider the following solved cases.
Compound	Emax [%]
C#C[C@]1(O)CC[C@H]2[C@@H]3CCC4=CC(=O)CC[C@@H]4[C@H]3CC[C@@]21CC [Levonorgestrel, reference compound]	216
CC1=CC(C)(C)Nc2ccc3c(c21)/C(=C/c1cccc(F)c1)Oc1c(F)cc(F)cc1-3 [Compound 15]	191
C[C@]12CCC(=O)C=C1[C@@H]1C[C@@H]1[C@H]1[C@@H]3[C@@H]4C[C@@H]4[C@@]4(CCC(=O)O4)[C@@]3(C)CC[C@@H]12 [Drospirenone, reference compound]	87

Query: Report Emax for CC1=CC(C)(C)Nc2ccc3c(c21)/C(=C/c1ccncc1)Oc1c(F)cc(F)cc1-3 [Compound 14] please.
Reply: 103

Query: Report Emax for COc1ccc(F)cc1/C=C1\Oc2c(F)cc(F)cc2-c2ccc3c(c21)C(C)=CC(C)(C)N3 [Compound 26] please.
Reply: 159

Query: Report Emax for CC1=CC(C)(C)Nc2ccc3c(c21)/C(=C/C#N)Oc1c(F)cc(F)cc1-3 [Compound 24] please.
Reply: 52

Query: Report Emax for CC1=CC(C)(C)Nc2ccc3c(c21)C(c1cccc(Cl)c1)Oc1c(F)cc(F)cc1-3 (racemic) [Compound 41] please.
Reply: 146

Query: Report Emax for COc1ccccc1/C=C1\Oc2c(F)cc(F)cc2-c2ccc3c(c21)C(C)=CC(C)(C)N3 [Compound 18] please.
Reply: 142

Query: Report Emax for CC1=CC(C)(C)Nc2ccc3c(c21)C(c1ccccc1)Oc1c(F)cc(F)cc1-3 (racemic) [Compound 33] please.
Reply: 85

Query: Report Emax for CC1=CC(C)(C)Nc2ccc3c(c21)/C(=C/Br)Oc1c(F)cc(F)cc1-3 [Compound 29] please.
Reply: 191

Query: Report Emax for CC1=CC(C)(C)Nc2ccc3c(c21)/C(=C/c1cccs1)Oc1c(F)cc(F)cc1-3 [Compound 31] please.
Reply: 171

Query: Report Emax for CC1=CC(C)(C)Nc2ccc3c(c21)C(c1ccc(Cl)c(C)c1)Oc1c(F)cc(F)cc1-3 (racemic) [Compound 37] please.
Reply: 89

Query: Report Emax for CC1=CC(C)(C)Nc2ccc3c(c21)/C(=C/c1ccsc1)Oc1c(F)cc(F)cc1-3 [Compound 30] please.
Reply: 186

---

- Experimental System: UniProtKB P06401
- Sequence (P06401 679-933 limits assumed): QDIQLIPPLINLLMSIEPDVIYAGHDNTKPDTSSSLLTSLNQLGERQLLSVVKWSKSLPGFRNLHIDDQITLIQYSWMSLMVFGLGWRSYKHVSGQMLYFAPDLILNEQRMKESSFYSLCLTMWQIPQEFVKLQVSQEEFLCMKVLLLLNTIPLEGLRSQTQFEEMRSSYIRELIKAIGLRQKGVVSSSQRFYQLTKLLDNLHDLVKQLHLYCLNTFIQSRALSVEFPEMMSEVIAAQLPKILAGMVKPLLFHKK
- Method Notes: T47D alkaline phosphatase assay, agonist mode
- Type: cell-based
- Details: T47D human breast cancer cells
Please note: EC50 exactly at 30 nM is Criterion not met. Only values below 30 nM get Criterion met.

Compound	Classification
CC1=CC(C)(C)Nc2ccc3c(c21)/C(=C/c1cccs1)Oc1c(F)cc(F)cc1-3	Criterion met
CC1=CC(C)(C)Nc2ccc3c(c21)/C(=C/c1cc(F)ccc1C)Oc1c(F)cc(F)cc1-3	Criterion met
CC1=CC(C)(C)Nc2ccc3c(c21)/C(=C/c1ccsc1)Oc1c(F)cc(F)cc1-3	Criterion not met
CC1=CC(C)(C)Nc2ccc3c(c21)C(c1ccccc1)Oc1c(F)cc(F)cc1-3 (racemic)	Criterion not met

Query: I'd appreciate it if you could check whether CC1=CC(C)(C)Nc2ccc3c(c21)C(c1ccc(Cl)c(C)c1)Oc1c(F)cc(F)cc1-3 (racemic) [Compound 37] has EC50 smaller than 30 nM.
Reply: Criterion not met

Query: I'd appreciate it if you could check whether CC1=CC(C)(C)Nc2ccc3c(c21)C(c1cc2ccccc2s1)Oc1c(F)cc(F)cc1-3 (racemic) has EC50 smaller than 30 nM.
Reply: Criterion met

Query: I'd appreciate it if you could check whether CC1=CC(C)(C)Nc2ccc3c(c21)C(CC(=O)c1ccccc1)Oc1c(F)cc(F)cc1-3 (racemic) has EC50 smaller than 30 nM.
Reply: Criterion not met

Query: I'd appreciate it if you could check whether CC1=CC(C)(C)Nc2ccc3c(c21)/C(=C/C#N)Oc1c(F)cc(F)cc1-3 has EC50 smaller than 30 nM.
Reply: Criterion not met

Query: I'd appreciate it if you could check whether COc1ccc(F)cc1/C=C1\Oc2c(F)cc(F)cc2-c2ccc3c(c21)C(C)=CC(C)(C)N3 has EC50 smaller than 30 nM.
Reply: Criterion met

Reference source for all entries: patent US7163946B2
